system: convulsion induced by picrotoxine in mice; test: Protection against picrotoxine-induced convulsion (suppression of the tonic extension phase); assay type: in vivo, male Swiss mice; settings: Mus musculus, ip, 0.5 h, read-out: i.p.: % prot. (percentage of protected animals), 50 mg/kg i.p., picrotoxine 24 mg/kg i.p. 30 min later; * p<0.05, ** p<0.01, *** p<0.001
Examples of compounds with documented responders at 50 mg/kg follow.
Write the number in % without appending the unit.

Q: Query (compound): CCC(CC=Cc1ccccc1)(NC)c1ccccc1 (stereo not shown) [Example 18, a-cinnamyl-a-ether-N-methyl-benzylamine] ; field requested: responders at 50 mg/kg
Result: 80

Q: Item CCC(N)(CC=Cc1ccccc1)c1ccc(OC)cc1 (stereo not shown) has what recorded responders at 50 mg/kg?
Result: 80

Q: If you can, please state the reported responders at 50 mg/kg value of CCC(CC=Cc1ccsc1)(c1ccsc1)N(C)C (stereo not shown) .
Result: 80

Q: Could you share which responders at 50 mg/kg value was measured for CCC(N)(CC=Cc1ccccc1)c1ccc(Cl)cc1 (single isomer, unassigned; (+)) [Example 17A] ?
Result: 80

====

biological target: opiated delta receptor (Cavia porcellus, UniProt A0A286XTF2); construct: membranous receptors of a guinea pig; from tissue; assay: Displacement of specific radioactive ligands, opiated delta receptor; type: binding, guinea pig; conditions: inhibition of 50% of radioligand bonds; read-out: CI50 affinity delta rec.
Sequence (A0A286XTF2 1-366): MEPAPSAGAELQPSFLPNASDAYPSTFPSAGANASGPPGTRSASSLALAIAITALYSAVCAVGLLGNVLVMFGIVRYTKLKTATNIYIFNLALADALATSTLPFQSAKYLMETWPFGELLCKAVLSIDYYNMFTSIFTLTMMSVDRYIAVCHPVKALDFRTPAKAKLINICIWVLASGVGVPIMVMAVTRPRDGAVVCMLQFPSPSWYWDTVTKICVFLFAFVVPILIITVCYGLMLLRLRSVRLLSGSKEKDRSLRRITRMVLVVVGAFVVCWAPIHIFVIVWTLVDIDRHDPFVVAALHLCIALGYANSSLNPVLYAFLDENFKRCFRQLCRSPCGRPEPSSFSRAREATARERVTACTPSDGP
This section presents compounds with their documented pIC50 values.
Interpret pIC50 as the negative base-10 log of the concentration measured in mol/L.

Record excerpt, results attached:
CCC(CC=Cc1ccc(Cl)c(Cl)c1)(c1ccc(Cl)cc1)N(C)C (stereo not drawn) = 6.36
CCC(CC=Cc1ccccc1)(c1ccc(Cl)cc1)N(C)C (stereo not drawn) = 5.87
CCC(CC=Cc1ccc(Cl)c(Cl)c1)(NC)c1ccc(Cl)cc1 (stereo not drawn) = 5.97

Q: Consider the compound CCC(CC=Cc1ccc(Cl)c(Cl)c1)(NC)c1ccc(C)cc1 (stereo not drawn) and give its measured pIC50.
Result: 5.85

Q: // query pIC50 value for entry CCC(CC=Cc1cc(OC)c(OC)c(OC)c1)(c1ccccc1)N(C)C (stereo not drawn)
Result: 6.82

Q: Fill in the blank: the reported pIC50 of CCC(CC=Cc1ccc(Cl)c(Cl)c1)(c1ccccc1)N(C)C (stereo not drawn) is ____.
Result: 6.17

Q: Report pIC50 for CCC(CC=Cc1ccc(Cl)c(Cl)c1)(NC)c1ccc(OC)cc1 (stereo not drawn) please.
Result: 5.80

Q: Any idea what its pIC50 is? The compound is CNC(CC=Cc1ccc(Cl)c(Cl)c1)(c1ccccc1)C(C)C (stereo not drawn)
Result: 5.86

Q: What value of measured pIC50 is listed for CCC(CC=Cc1ccccc1)(c1ccc(C)cc1)N(C)C (stereo not drawn) ?
Result: 5.91

These data points were gathered from patent US5017723A.
